# condition: in ethyl acetate, 313.15 K
measurement_label: solubility (mole fraction)

Form field: reported solubility (mole fraction) of `CC(C)(C)c1ccc(-c2nnc(-c3ccc(-c4ccccc4)cc3)o2)cc1`
0.03
